- assay_procedure: Kinetic solubility in FaSSIF with pre-dissolved additives (in situ UV probes, ZIM)
- Assay type: physicochemical
- run_conditions: FaSSIF buffer with pre-dissolved additive, 37 °C, pH 6.5, aqueous with cosolvent or surfactant or cyclodextrin, TEL in FaSSIF with SDS 850 μg/mL
measured_quantity: solubility kinetic (mg/mL)
Give the value, in units of mg/mL, as a plain number.

INPUT: What value of solubility kinetic has been recorded for this entry: CCCc1nc2c(C)cc(-c3nc4ccccc4n3C)cc2n1Cc1ccc(-c2ccccc2C(=O)O)cc1 [TEL, telmisartan]
OUTPUT: 0.0459

====

- assay_procedure: Kinetic solubility in FaSSIF with pre-dissolved additives (in situ UV probes, ZIM)
- Format: physicochemical
- run_conditions: FaSSIF buffer with pre-dissolved additive, 37 °C, pH 6.5, aqueous with cosolvent or surfactant or cyclodextrin, TEL in FaSSIF with HPβCD 1386 μg/mL
measured_quantity: solubility kinetic (µg/mL)
Give the value, in units of µg/mL, as a plain number.

INPUT: What value of solubility kinetic has been recorded for this entry: `CCCc1nc2c(C)cc(-c3nc4ccccc4n3C)cc2n1Cc1ccc(-c2ccccc2C(=O)O)cc1`
OUTPUT: 37.5

====

- assay_procedure: Kinetic solubility in FaSSIF with pre-dissolved additives (in situ UV probes, ZIM)
- Assay type: physicochemical
- run_conditions: FaSSIF buffer with pre-dissolved additive, 37 °C, pH 6.5, fassif, TEL in FaSSIF with Sorbitol 667 μg/mL
measured_quantity: solubility kinetic (mg/mL)
Give the value, in units of mg/mL, as a plain number.

INPUT: What value of solubility kinetic has been recorded for this entry: `CCCc1nc2c(C)cc(-c3nc4ccccc4n3C)cc2n1Cc1ccc(-c2ccccc2C(=O)O)cc1`
OUTPUT: 0.0307

====

- assay_procedure: Kinetic solubility in FaSSIF with pre-dissolved additives (in situ UV probes, ZIM)
- Assay type: physicochemical
- run_conditions: FaSSIF buffer with pre-dissolved additive, 37 °C, pH 6.5, fassif, TEL in FaSSIF with Mannitol 667 μg/mL
measured_quantity: solubility kinetic (µg/mL)
Give the value, in units of µg/mL, as a plain number.

INPUT: What value of solubility kinetic has been recorded for this entry: `CCCc1nc2c(C)cc(-c3nc4ccccc4n3C)cc2n1Cc1ccc(-c2ccccc2C(=O)O)cc1`
OUTPUT: 39.7

====

- assay_procedure: Kinetic solubility in FaSSIF with pre-dissolved additives (in situ UV probes, ZIM)
- Format: physicochemical
- run_conditions: FaSSIF buffer with pre-dissolved additive, 37 °C, pH 6.5, fassif, TEL in FaSSIF with HPMC-AS 212 μg/mL
measured_quantity: solubility kinetic (µg/mL)
Give the value, in units of µg/mL, as a plain number.

INPUT: What value of solubility kinetic has been recorded for this entry: `CCCc1nc2c(C)cc(-c3nc4ccccc4n3C)cc2n1Cc1ccc(-c2ccccc2C(=O)O)cc1`
OUTPUT: 34.1

====

- assay_procedure: Solubility of TEL
- Assay type: physicochemical
- run_conditions: pH 6.5; crystalline TEL in FaSSIF media
measured_quantity: solubility

INPUT: What value of solubility has been recorded for this entry: CCCc1nc2c(C)cc(-c3nc4ccccc4n3C)cc2n1Cc1ccc(-c2ccccc2C(=O)O)cc1 [TEL, telmisartan]
OUTPUT: < 1 µg/mL

====

- assay_procedure: Kinetic solubility in FaSSIF with pre-dissolved additives (in situ UV probes, ZIM)
- Type: physicochemical
- run_conditions: FaSSIF buffer with pre-dissolved additive, 37 °C, pH 6.5, fassif, TEL in FaSSIF with PVP K90 212 μg/mL
measured_quantity: solubility kinetic (µg/mL)
Give the value, in units of µg/mL, as a plain number.

INPUT: What value of solubility kinetic has been recorded for this entry: `CCCc1nc2c(C)cc(-c3nc4ccccc4n3C)cc2n1Cc1ccc(-c2ccccc2C(=O)O)cc1`
OUTPUT: 34.4
